target: Prostaglandin E2 receptor EP2 subtype (Homo sapiens) (UniProt P43116); assay: compounds shifting PGE2 potency at EP2 – cell-based, human EP2, PGE2 EC50 shift, dose response (AID 1421); details: EP2-expressing cells, PGE2 EC50 shift by compound; at 20 µM
Sequence (P43116 whole entry, looked up): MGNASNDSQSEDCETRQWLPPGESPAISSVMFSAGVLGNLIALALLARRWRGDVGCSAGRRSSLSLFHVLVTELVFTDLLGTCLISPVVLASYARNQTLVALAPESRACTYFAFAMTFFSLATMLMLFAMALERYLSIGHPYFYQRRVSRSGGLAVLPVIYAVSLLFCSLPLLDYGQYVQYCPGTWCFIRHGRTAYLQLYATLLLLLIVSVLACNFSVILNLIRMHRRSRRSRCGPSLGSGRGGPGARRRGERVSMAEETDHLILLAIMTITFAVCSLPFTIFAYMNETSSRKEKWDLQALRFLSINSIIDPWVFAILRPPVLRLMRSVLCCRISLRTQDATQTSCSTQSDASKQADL
The whole screen tested about 1,300 compounds, of which about 140 (11%) were called active. Not all results are given here. Entries with a potency or affinity are not part of this list.
QUANTITY_NAME: PGE2 EC50 with compound

Observe how each entry below is paired with its result.
CC(C)n1c2ccccc2c2nnc(SCC(=O)Nc3ccccc3C(=O)O)nc21 :: 1.63 nM (inactive)
COc1cccc(C2=NN(C(=O)c3cccs3)C(O)(C(F)(F)F)C2)c1 (stereo unspecified) :: 0.25 nM (inactive)
CCSc1nc2ccccc2n1Cc1ccccc1F :: 0.31 nM (inactive)
O=C(Nc1ccccc1Oc1ccccc1)c1ccc(Br)o1 :: 0.3 nM (inactive)
Cc1cc(C)c2c(n1)sc1c(=O)n(Cc3ccccc3Cl)nnc12 :: 0.29 nM (inactive)

# context switch: different compound, same PGE2 EC50 with compound
(Q) Reported PGE2 EC50 with compound for "CCOC(=O)c1c(NC(=O)CSc2nnc(N)s2)sc(C)c1-c1ccc(C)cc1" : what is it?
(A) 0.35 nM (inactive)

----------
biological target: Prostaglandin E2 receptor EP2 subtype (Homo sapiens) (UniProt P43116); assay: compounds shifting PGE2 potency at EP2 – cell-based, human EP2, PGE2 EC50 shift, dose response (AID 1421); settings: EP2-expressing cells, PGE2 EC50 shift by compound; at 20 µM
Out of some 1,300 compounds screened, about 140 (11%) were called active. Only a sample is shown. Measured potencies and affinities stand elsewhere.
QUANTITY_NAME: PGE2 EC50 with compound

(Q) Reported PGE2 EC50 with compound for "O=C(CSc1ncnc2c1oc1ccccc12)Nc1ccccc1F" : what is it?
(A) 1.24 nM (inactive)

(Q) Reported PGE2 EC50 with compound for "Cc1cc(C(=O)CSc2nc3ccccc3c(=O)n2C)c(C)n1Cc1ccc2c(c1)OCO2" : what is it?
(A) 0.29 nM (inactive)

(Q) Reported PGE2 EC50 with compound for "Cc1ccc2[nH]c3c(=S)nc[nH]c3c2c1" : what is it?
(A) 10.1 nM (inactive)

(Q) Reported PGE2 EC50 with compound for "O=C(Cc1c(F)cccc1Cl)Nc1ccccc1N1CCCCC1" : what is it?
(A) 0.53 nM (inactive)

(Q) Reported PGE2 EC50 with compound for "Clc1ccc(-c2nn3c(-c4ccccc4)nnc3s2)cc1" : what is it?
(A) 1.36 nM (inactive)

(Q) Reported PGE2 EC50 with compound for COC(=O)C1C(c2ccccc2)C(C(=O)OCc2ccco2)C1c1ccccc1 (stereo unspecified) : what is it?
(A) 0.38 nM (inactive)

----------
target: Prostaglandin E2 receptor EP2 subtype (Homo sapiens); experiment: compounds shifting PGE2 potency at EP2 – cell-based, human EP2, PGE2 EC50 shift, dose response (AID 1421); conditions: EP2-expressing cells, PGE2 EC50 shift by compound; at 20 µM
The campaign covered roughly 1,300 compounds. About 140 (11%) were called active. These entries were drawn from the full list. Entries with a potency or affinity are not part of this list.
QUANTITY_NAME: PGE2 EC50 with compound

Observe how each entry below is paired with its result.
O=C(/C(=C/O)N=Nc1ccccc1)c1ccc(Cl)cc1 :: 7.05 nM (inactive)
CCCC1=C(C(=O)OCC)C(c2cccs2)C(C#N)=C(N)O1 (stereo not given) :: 0.32 nM (inactive)
O=c1c2ccccc2c2ccccc2c(=O)n1Cc1ccco1 :: 0.45 nM (inactive)
COc1ccc(-n2c(COc3cccc4ccccc34)nnc2SCC(=O)NCc2ccco2)cc1 :: 0.72 nM (inactive)
CC(=O)Oc1c2c(c3c(c1CC=C(C)C)O[C@]14C(=C[C@@H]5CC1C(C)(C)OC4(C/C=C(\C)C(=O)O)C5=O)C3=O)OC(C)(CCC=C(C)C)C=C2 (stereo not given in full) :: 7.31 nM (inactive)
O=C(O)CCCCCCCCCCCc1ccccc1 :: 0.7 nM (inactive)

(Q) Reported PGE2 EC50 with compound for "CC(C)CCn1c(O)c(N=NC(=O)c2ccco2)c2ccccc21" : what is it?
(A) 0.33 nM (inactive)

(Q) Reported PGE2 EC50 with compound for "CCCCCCn1c(COc2ccccc2F)nnc1SCC(=O)N1c2ccccc2NC(=O)C1(C)C" : what is it?
(A) 0.69 nM (inactive)

(Q) Reported PGE2 EC50 with compound for "CCOC(=O)C(Cc1ccccc1)(NC(C)=O)C(=O)OCC" : what is it?
(A) 1.39 nM (inactive)

(Q) Reported PGE2 EC50 with compound for "CC(C)CCn1c(Oc2ccc(Cl)cc2)nc2c1c(=O)n(C)c(=O)n2C" : what is it?
(A) 0.31 nM (inactive)

----------
biological target: Prostaglandin E2 receptor EP2 subtype (Homo sapiens) (UniProt P43116); assay: compounds shifting PGE2 potency at EP2 – cell-based, human EP2, PGE2 EC50 shift, dose response (AID 1421); conditions: EP2-expressing cells, PGE2 EC50 shift by compound; at 20 µM
About 140 (11%) of roughly 1,300 compounds were called active. Only a sample is shown. Potency and affinity values are given separately.
QUANTITY_NAME: PGE2 EC50 with compound

Observe how each entry below is paired with its result.
COc1ccccc1N(C(=O)NCc1ccccc1)C1=NCC(C)S1 (configuration not stated) :: 0.21 nM (inactive)
C=CCSc1nc(N(CC)CC)c2sccc2n1 :: 0.61 nM (inactive)
Cc1ccc(-c2cc3nn(-c4ccccc4)c(N)c3c(=O)o2)cc1 :: 1.29 nM (inactive)
Cc1cc(C)n(-c2nc(C)nc3c2cnn3-c2ccccc2)n1 :: 0.41 nM (inactive)
CCOc1ccccc1NC(=O)c1c(Br)cnn1C :: 0.79 nM (inactive)
CCOP(=O)(OCC)c1nc(-c2ccccc2)oc1NCc1ccccc1 :: 0.36 nM (inactive)

(Q) Reported PGE2 EC50 with compound for "Cc1onc(-c2ccccc2Cl)c1-c1nc(-c2ccncc2)no1" : what is it?
(A) 0.49 nM (inactive)

(Q) Reported PGE2 EC50 with compound for CCOC(=O)c1ccccc1NC1c2ccccc2C(=O)N1c1cc(C)ccn1 (configuration not stated) : what is it?
(A) 0.34 nM (inactive)

----------
molecular target: Prostaglandin E2 receptor EP2 subtype (Homo sapiens) (UniProt P43116); assay: compounds shifting PGE2 potency at EP2 – cell-based, human EP2, PGE2 EC50 shift, dose response (AID 1421); conditions: EP2-expressing cells, PGE2 EC50 shift by compound; at 20 µM
In all, about 1,300 compounds went through this assay and about 140 (11%) were called active. Only a sample is shown. Results with a measured potency or affinity are listed apart.
Reported PGE2 EC50 with compound is given for each of the following molecules.

(Q) Reported PGE2 EC50 with compound for "OCCCNc1nc(-c2ccc(Cl)cc2)nnc1-c1ccc(Br)cc1" : what is it?
(A) 1.44 nM (inactive)

----------
target: Prostaglandin E2 receptor EP2 subtype (Homo sapiens) (UniProt P43116); assay: compounds shifting PGE2 potency at EP2 – cell-based, human EP2, PGE2 EC50 shift, dose response (AID 1421); conditions: EP2-expressing cells, PGE2 EC50 shift by compound; at 20 µM
Among all 1,300 compounds or so, about 140 (11%) were called active. A selection follows. Results with a measured potency or affinity are listed apart.
QUANTITY_NAME: PGE2 EC50 with compound

Observe how each entry below is paired with its result.
Cc1nnc(SCC(=O)N2c3ccccc3C(C)(c3ccccc3)CC2(C)C)s1 (configuration not stated) :: 0.37 nM (inactive)
COc1ccc(CSC2=C(C#N)C(=O)NC3(CCCCC3)S2)cc1 :: 0.76 nM (inactive)
O=C(Cc1ccc(F)cc1)Nc1ccccc1Sc1ccccc1 :: 0.23 nM (inactive)
O=C(COc1ccccc1)Nc1cc(C(F)(F)F)ccc1N1CCCC1 :: 0.31 nM (inactive)
CC(C)(C)C1CCc2onc(C(=O)Nc3cccnc3)c2C1 (configuration not stated) :: 0.4 nM (inactive)
Cc1cccc(Oc2sc(C(=O)c3ccccc3)c(N)c2C#N)c1 :: 0.48 nM (inactive)

(Q) Reported PGE2 EC50 with compound for "COC(=O)c1cc2ccsc2n1Cc1ccccc1F" : what is it?
(A) 0.49 nM (inactive)

(Q) Reported PGE2 EC50 with compound for "COc1cc2c(cc1OC)-c1cc(Nc3ccc4c(c3)OCCO4)nc(=O)n1CC2" : what is it?
(A) 0.72 nM (inactive)

(Q) Reported PGE2 EC50 with compound for "NS(=O)(=O)c1ccc(NCc2cnc3ccccc3n2)cc1" : what is it?
(A) 1.13 nM (inactive)

(Q) Reported PGE2 EC50 with compound for "Cc1sc(NC(=O)CN2CCOCC2)c(C(=O)c2ccccc2)c1C" : what is it?
(A) 0.63 nM (inactive)

(Q) Reported PGE2 EC50 with compound for "O=C(CSc1nc2ccccc2o1)Nc1ccccc1N1CCCCCC1" : what is it?
(A) 0.53 nM (inactive)

(Q) Reported PGE2 EC50 with compound for COCC(=O)Nc1sc2c(c1C(=O)OC)CCC(C)C2 (configuration not stated) : what is it?
(A) 0.38 nM (inactive)

(Q) Reported PGE2 EC50 with compound for CC1CN(c2nc3ccccc3cc2-c2ccccc2)CC(C)O1 (configuration not stated) : what is it?
(A) 0.31 nM (inactive)
